Assay: qHTS assay for small molecule antagonists of retinoid X receptor alpha signaling (AID 588546);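 note: cells stimulated with 9-cis-retinoic acid as agonist; % is set by controls: 0 for no effect and ±100 for the full control effect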
Details: HEK293T RXRa-UAS-bla, beta-lactamase ratio, antagonist mode; measured here: W530 green channel, cytotoxicity proxy
Results filed as inconclusive are left out.
Provide the recorded max response for the entries that follow.
Unit % implied. Number only.

For the molecule FC(F)C(F)(F)OCC(Cn1cncn1)c1ccc(Cl)cc1Cl (stereo unspecified) , give its measured max response value. -6.39

Please report the measured max response for CCNP(=S)(OC)O/C(C)=C/C(=O)OC(C)C (stereo unspecified) -11.8

Quickly give me recorded max response for CCOC1Oc2ccc(OS(C)(=O)=O)cc2C1(C)C (stereo unspecified) -7.46

Using the record for CCC(C)(C)c1cc(-n2nc3ccccc3n2)c(O)c(C(C)(C)CC)c1 , state its measured max response. -14

Read the entry Cc1nn(-c2cc(NS(C)(=O)=O)c(Cl)cc2Cl)c(=O)n1C(F)F and write its reported max response. -3.07

Using the record for CNC(=O)Oc1cc(C)cc(C(C)C)c1 , state its measured max response. -5.53

====

Test system: CP252
Test: qHTS profiling for inhibitors of Plasmodium falciparum proliferation (AID 504749); note: nearly all actives have a fitted effect of over 60% in size
Conditions: P. falciparum in erythrocytes, SYBR Green DNA, 72 h; series mostly up to 28.7 µM
Results filed as inconclusive are left out. Active and inactive are the calls of the source. Calls come from the whole dose curve; as a rule, active = well fitted inhibition curve with a large enough effect; inconclusive = small, poorly fitted or top-dose-only effect; inactive = flat fitted curve, though single readings scatter.
Pick one: 1.0 for active, 0.0 for inactive

Hello, I am checking results. What call was entered for CC(=O)[C@H]1CC[C@H]2C3CC[C@H]4C[C@H](O)CC[C@]4(C)C3CC[C@]12C (some centres not stated) ? 0.0

Give the logged outcome of this assay for the following molecule: O=C1CC2OCC=C3CN4CCC56c7ccccc7N1C5[C@H]2[C@H]3C[C@H]46 (some centres not stated) (tested in a mixture with another compound) 0.0

What did the test return for C[C@@H]1CC[C@H]2[C@@H](C)C(=O)O[C@@H]3OC4(C)CC[C@@H]1C32OO4 (some centres not stated) ? 1.0

For this molecule, state the assay outcome: COC(=O)C1C(OC(=O)c2ccccc2)CC2CCC1N2C (configuration not stated) 0.0

State the result this test recorded for C=CC[C@]1(O)CCC2C3CCC4=CCCCC4C3CCC21C (some centres not stated) . 0.0

Call for entry CCCCCC(O)C1C(=O)OC(C)C(O)\C=C/C=C\C=C/C=C\C=C(\C)C(O)C(O)C(O)CC(O)CC(O)CC(O)CC(O)CC1O (configuration not stated) : 0.0

Assay result, entry COC(C(=O)C(O)C(C)O)C1Cc2cc3cc(OC4CC(OC5CC(O)C(OC)C(C)O5)C(OC(C)=O)C(C)O4)c(C)c(O)c3c(O)c2C(=O)C1OC1CC(OC2CC(OC3CC(C)(O)C(OC(C)=O)C(C)O3)C(O)C(C)O2)C(O)C(C)O1 (configuration not stated) — outcome? 1.0

Just curious, what result did CCCN1CCCC2Cc3nc(N)ncc3CC21 (configuration not stated) get here? 0.0

// return assay outcome for C#CCN1CC(=O)N(COC(=O)[C@@H]2[C@@H](C=C(C)C)C2(C)C)C1=O 0.0

Any idea what this test logged for C=C1Nc2ccccc2C(=O)N1c1ccccc1C ? 0.0

Dear colleague, could you share the recorded outcome for CC1OC(O[C@H]2C[C@@H](O)[C@]3(CO)[C@@H]4C(CC[C@]3(O)C2)[C@@]2(O)CC[C@H](C3=CC(=O)OC3)[C@@]2(C)C[C@H]4O)C(O)C(O)C1O (some centres not stated) when you have a moment? 0.0

Could you please tell me the result logged for CN1C2CCC1C(C(=O)O)C(OC(=O)c1ccccc1)C2 (configuration not stated) in this assay? 0.0

Assay result, entry C=C1CC2C(CC[C@]3(C)C(=O)CCC23)[C@]2(C)C=CC(=O)C=C12 (some centres not stated) — outcome? 0.0

Returns: the outcome recorded for [S]=[Sb][S][Sb]=[S] in this assay. 0.0

Assay result, entry OC[C@@H](O)[C@H]1O[C@@H]2OC(C(Cl)(Cl)Cl)O[C@H]2[C@H]1O (some centres not stated) — outcome? 0.0

Would you mind telling me which call this test gave Cc1ccc2c(c1)[C@@H]1CN(C)CC[C@H]1N2 ? 0.0

Would you mind telling me which call this test gave CCC/C=C/C=C/C(=O)OC1/C(=C/C(=O)OC)CC2CC(C(C)O)OC(=O)CC(O)CC3CC(OC(C)=O)C(C)(C)C(O)(CC4C/C(=C/C(=O)OC)CC(/C=C\C(C)(C)C1(O)O2)O4)O3 (configuration not stated) ? 1.0

Numbers sourced from PubChem BioAssay (NCATS).
